Cited source for all entries: patent US20240010720A1

Biological target: T1, IGSF11 ECD fused to murine-Fc (human; mouse, UniProt Q5DX21 23-241)
T1 construct: also called Fc-fusion IGSF11 ECD; full-length ECD of IGSF11; not shown: murine Fc
T1 sequence: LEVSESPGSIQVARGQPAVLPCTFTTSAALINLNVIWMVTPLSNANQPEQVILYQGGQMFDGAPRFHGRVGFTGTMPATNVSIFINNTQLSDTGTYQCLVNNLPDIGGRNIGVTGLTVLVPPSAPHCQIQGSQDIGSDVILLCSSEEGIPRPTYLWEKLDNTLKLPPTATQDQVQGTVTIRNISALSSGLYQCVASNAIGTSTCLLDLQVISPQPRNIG
Assay: ELISA, IgG
experimental.readout: EC50

Task item: # query: EC50 of entry A-004 (IgG1 format) (antibody, V domains shown, human IgG1 format) VH: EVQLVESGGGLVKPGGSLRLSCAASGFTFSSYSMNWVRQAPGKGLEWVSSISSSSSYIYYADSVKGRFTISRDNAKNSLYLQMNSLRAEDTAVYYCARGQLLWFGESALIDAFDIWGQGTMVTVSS VL: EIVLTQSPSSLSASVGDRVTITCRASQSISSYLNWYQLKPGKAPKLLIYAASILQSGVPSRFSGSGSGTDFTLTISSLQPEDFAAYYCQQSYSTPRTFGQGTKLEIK
Reply: 1 to 20 nM

Task item: # query: EC50 of entry A-027 (IgG1 format) (antibody, V domains shown, human IgG1 format) VH: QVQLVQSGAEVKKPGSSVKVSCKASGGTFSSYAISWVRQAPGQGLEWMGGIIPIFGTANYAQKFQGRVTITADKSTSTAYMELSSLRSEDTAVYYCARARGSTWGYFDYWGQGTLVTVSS VL: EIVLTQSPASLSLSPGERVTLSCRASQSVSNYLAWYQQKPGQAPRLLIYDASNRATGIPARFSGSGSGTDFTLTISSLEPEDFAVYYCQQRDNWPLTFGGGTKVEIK
Reply: 1 to 20 nM

Task item: # query: EC50 of entry A-026 (IgG1 format) (antibody, V domains shown, human IgG1 format) VH: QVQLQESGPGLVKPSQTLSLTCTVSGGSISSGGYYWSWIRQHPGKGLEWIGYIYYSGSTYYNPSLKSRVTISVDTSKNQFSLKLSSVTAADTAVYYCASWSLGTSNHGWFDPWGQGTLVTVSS VL: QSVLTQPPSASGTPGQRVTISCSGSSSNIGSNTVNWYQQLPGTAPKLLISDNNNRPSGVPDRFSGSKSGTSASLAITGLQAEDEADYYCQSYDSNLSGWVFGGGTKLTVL
Reply: 1 to 20 nM

Task item: # query: EC50 of entry A-035 (IgG1 format) (antibody, V domains shown, human IgG1 format) VH: QVQLVQSGAEVKKPGASVKVSCKASGYTFTGYYMHWVRQAPGQGLEWMGWINPNSGNTGYAQKFQGRVTMTRNTSISTAYMELSSLRSEDTAVYYCARGRLERGYWYFDLWGRGTLVTVSS VL: NFMLTQPHSVSESPGRTVTISCTRSSGSITSNYVQWYQQRPGSAPTILIYEDKERPSEVPDRFSGSIDISSNSASLTISGLKTEDEADYYCQSYGGTSQGVLFGGGTKVTVL
Reply: 1 to 20 nM

Task item: # query: EC50 of entry A-022 (IgG1 format) (antibody, V domains shown, human IgG1 format) VH: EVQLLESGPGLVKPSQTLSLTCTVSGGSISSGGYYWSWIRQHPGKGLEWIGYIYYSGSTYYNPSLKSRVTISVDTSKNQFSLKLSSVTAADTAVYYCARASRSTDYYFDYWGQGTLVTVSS VL: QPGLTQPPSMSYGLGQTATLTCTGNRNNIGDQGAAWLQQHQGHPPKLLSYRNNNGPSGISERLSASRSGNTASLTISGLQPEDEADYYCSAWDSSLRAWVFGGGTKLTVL
Reply: < 1 nM

Task item: # query: EC50 of entry A-006 (IgG1 format) (antibody, V domains shown, human IgG1 format; also called A-006-like ABP) VH: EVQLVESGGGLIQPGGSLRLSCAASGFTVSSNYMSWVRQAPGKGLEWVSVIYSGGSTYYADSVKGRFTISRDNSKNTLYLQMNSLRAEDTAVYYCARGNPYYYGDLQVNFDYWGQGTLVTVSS VL: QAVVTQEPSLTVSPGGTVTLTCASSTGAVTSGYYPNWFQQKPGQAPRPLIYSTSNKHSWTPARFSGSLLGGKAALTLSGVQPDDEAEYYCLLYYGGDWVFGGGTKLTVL
Reply: < 1 nM

Task item: # query: EC50 of entry A-011 (IgG1 format) (antibody, V domains shown, human IgG1 format) VH: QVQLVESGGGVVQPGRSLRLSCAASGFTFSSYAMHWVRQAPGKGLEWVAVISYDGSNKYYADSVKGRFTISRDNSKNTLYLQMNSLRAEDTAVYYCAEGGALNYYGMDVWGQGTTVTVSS VL: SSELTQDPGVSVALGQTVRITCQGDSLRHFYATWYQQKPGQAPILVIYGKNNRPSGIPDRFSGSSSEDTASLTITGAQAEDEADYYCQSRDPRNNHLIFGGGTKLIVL
Reply: < 1 nM

Task item: # query: EC50 of entry A-024 (IgG1 format) (antibody, V domains shown, also called A-024-like ABP) VH: QMQLVQSGAEVKKPGSSVKVSCKASGGTFSSYAISWVRQAPGQGLEWMGWISAYNGNTNYAQKLQGRVTMTTDTSTSTAYMELRSLRSDDTAVYYCASLGSYGYTGAFDIWGQGTMATVSS VL: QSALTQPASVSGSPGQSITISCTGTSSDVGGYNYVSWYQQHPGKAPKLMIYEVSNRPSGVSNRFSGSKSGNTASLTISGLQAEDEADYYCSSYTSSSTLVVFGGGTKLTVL
Reply: < 1 nM

Task item: # query: EC50 of entry A-010 (IgG1 format) (antibody, V domains shown, human IgG1 format) VH: QVQLVQSGAEVKKPGASVKVSCKASGYTFTSYGISWVRQAPGQGLEWMGWISAYNGNTNYAQKLQGRVTMTTDTSTSTAYMELRSLRSDDTAVYYCARVPAWSGQFDYWGQGTLVTVSS VL: QSALTQPASVSGSPGQSITISCTGSSSDVGGYNYVSWYQQYPGKAPKLMIYDVRSRPSGVSNRFSGSKSGNTASLTISGLQAEDEADYYCTSYTSSNTLVIFGGGTKVTVL
Reply: < 1 nM
